Tested on: MS2 coat protein
assayRemarks: apparent KD of MS2 coat protein, switch ON state; designed switch direction (-1 OFF switch, 1 ON switch): -1; higher = weaker reporter binding
particulars: FMN input: 0 or 200 uM; Eterna round: R93 (includes R88 designs)
Tag: Condition met if measured apparent KD of MS2 coat protein is not below 40 nM, Condition not met if it is.

{"columns": ["sequenceData", "discreteLabel"],
 "data": [
  ["AGCUAGUCAGGAUAUACGAAAAUGUCAGAGGCAGUAAGGGAACAUGAGGAUCACCCAUGUAGAAGGGACUAGCA [Diamond 40]", "Condition not met"],
  ["CUCUUGUAAGGAUAUGACUACAUAAAAAAAAAAAAAUGUAGUCAGAAGGUACAUGAGGAUCACCCAUGUACUAA [Brourd - Exclusion 4 - Sub 2]", "Condition not met"],
  ["AACAAGACAGGAUAUACAUGAGGAUCACCCAUGUCACAACAAAGCAGCGCAACACAAAGUAGAAGGGUCAUGGA [Ruby 11]", "Condition met"],
  ["AAAAAACAUGAGGAUCACCCAUGUGAGGAUAUGUGAAAAAAAAAAUAAAAAAAAAAAAGCAGAAGGUACAAAAA [LROPPY Exclusion 1 - v03_deltaG=3.94]", "Condition met"],
  ["AUCUUGUCAGGAUAUGACUACAUAAAAAAAAAAAAAUGUAGUCAGAAGGGACAUGAGGAUCACCCAUGUACCAA [HSL_Exclusion 4 64% 2]", "Condition not met"],
  ["AAAUAGCAAGGAUAUACAUGAGGAUCACCCAUGUGACCCAGGUAUGGCAUAGACUAGAGUAGAAGGUGCAAAUA [Mod 5 of Ex 3 Tesla 8 - Jieux - Exclusion 3]", "Condition met"],
  ["AAGUUGCUAGGAUAUACUUGGGCAACAAAUGAACCAAUAUAACAUGAGGAUCACCCAUGUAGAAGGAGCAGAAA [JR_Exc002_Sub301]", "Condition not met"],
  ["AGCUAGUCAGGAUAUACGAACAUGUCAAAAGACGUGAAGAAACAUGAGGAUCACCCAUGUAGAAGGGACUAGCA [Mat - Exclusion 2 - JL-Eli mod - D50]", "Condition not met"],
  ["AAGAAGUGAGGAUAUCGAAGACUGUCGAAAAGACAGUCGAACGAGAAGGCACAUGAGGAUCACCCAUGUGGGAA [Marsurpial 65% 6]", "Condition met"],
  ["CUCAAGUGAGGAUAUCAGUAGUAAAAAAAUAAAAUUACUACUGAGAAGGCACAUGAGGAUCACCCAUGUUCCAA [EX4 342: Super Stable 42]", "Condition met"],
  ["AAAGAUGGAGGAUAUACAUGAGGAUCACCCAUGUAGAAAAAAAAUUGGGAAAAAGAAAGUAGAAGGCCAAAAAA [Ex 3 May 43]", "Condition not met"],
  ["AAAAAACAUGAGGAUCACCCAUGUAAGGAUAUGCUCAAGCGAAAAAGCACAAAAAAGAGCAGAAGGUACAAAAA [66%, Wbt, 41]", "Condition not met"],
  ["UAAAGACAUGAGGAUCACCCAUGUGAGGAUAUCGGAGAUGACGGAACAUCAAGUUCGGCGAGAAGGCGCAGGAA [JR_Exc001_Sub406]", "Condition not met"],
  ["AAAAAUGGAGGAUAUACAUGAGGAUCACCCAUGUGUGACUAUACUAAGCGCUCCUCAGGUAGAAGGCCAAAAAA [Gilly Gone Silly 16 - Jieux - Exclusion 3]", "Condition met"],
  ["AAAAAGUCAGGAUAUACAGAUAAAAAAACGAAAAAAAAUCUGUAGAAGGGACAUGAGGAUCACCCAUGUAAAAA [Ex 4 May 1]", "Condition met"],
  ["AAGAAUGGAGGAUAUACAUAAAAGAAAGAAAAGAAAAGAAAACAUGAGGAUCACCCAUGUAGAAGGCCAUAGAA [EteRNA is fun!]", "Condition not met"],
  ["GCUGUGGUAGGAUAUACAUGAGGAUCACCCAUGUGAGAGAAAAAAGUGAGAAAGAAAAGUAGAAGGACCGUAGG [salish99-ex3-101]", "Condition met"],
  ["AACAAAUGAGGAUAUACAAACAAAAAAAACAAACAAAACAAACAUGAGGAUCACCCAUGUAGAAGGCAUAAACA [JR_Exc002_Sub901]", "Condition not met"],
  ["AACUGACAUGAGGAUCACCCAUGUCAGGAUAUGCUUCAUAAAAACAAACAAAAAUGAUGCAGAAGGGACAUGGA [Design 30 :P Sub-opt 6]", "Condition not met"],
  ["AAGAAACAUGAGGAUCACCCAUGUGAGGAUAUCGAAAAGAAAAGAAAAGAAAGAAGAAUGAGAAGGCACAAAGG [Shed—]", "Condition not met"],
  ["AAGGGACAUGAGGAUCACCCAUGUGAGGAUAUGCUAUGGAAAUAAAAAAUAAAACAUAGCAGAAGGCAUAAAAA [Mat - Exclusion 1 - Eli mod - D38]", "Condition met"],
  ["GGAAAACAUGAGGAUCACCCAUGUGAGGAUAUCGAUGUCCAAAAAAGAGUGCGGGACUCGAGAAGGCACUUGGA [salish99-ex1-43]", "Condition met"],
  ["AAAAAGUGAGGAUAUGAAAAUAAAAAAAACAAACAAAUAAAUCAGAAGGCACAUGAGGAUCACCCAUGUAAAAA [JR_Exc004_Sub1202]", "Condition not met"]
]}

====

Test system: MS2 coat protein
assayRemarks: apparent KD of MS2 coat protein; designed switch direction (-1 OFF switch, 1 ON switch): 1; higher = weaker reporter binding
particulars: input ligand: FMN 200 uM
Tag: yes (1) if measured apparent KD of MS2 coat protein is not below 20 nM, no (0) if it is.

{"columns": ["sequenceData", "discreteLabel"],
 "data": [
  ["UCUGAUGCCGUAGGAUAUCUAGGAUAUGGACGAGGAUCACCCGAGCAGCAUCAGCGCACCAGAGGAGAGAAGGACGCUUUGGAA [pwkr ssNG2 2F5 2FMN.21] (Eterna round: R96, puzzle: Same State NG 2)", "yes (1)"],
  ["AUUGUUUAUGCAGGAUAUGAUUAACAUGAGGAUCACCCAUGUGGUGUUGUGAGUAAGGAGAGUGAUCAGAAGGGCAUUUUUUUU [JMF's solution 69] (Eterna round: R96, puzzle: Same State NG 2)", "yes (1)"],
  ["UAUCGUUUGAUAGGAUAUCGCUAUACAUGAGGAUCACCCAUGUUUACCACGCUGGUUUUUCAUACCGAGAAGGAUUCUGAUGAC [salish99_SSNG02_r04_006] (Eterna round: R96, puzzle: Same State NG 2)", "yes (1)"],
  ["AAGCUCGUGUGAGGAUAUGCCGCCGUUUCGGCUGCAGAAGGUGCUACGUUACAUGAGGAUCACCCAUGUCUCUGUUGUUUCGUU [salish99_SSNG1_r04_951] (Eterna round: R96, puzzle: Same State NG 1)", "no (0)"],
  ["AGACUACAACCUCGAACAUGAGGAUCACCCAUGUAAAGAUCCAAGGAUAUGGACAGGCCGAGCUACCAGAAGGUGGAAAGAGCC [Eternabot solution 7] (Eterna round: R96, puzzle: Same State NG 3)", "yes (1)"],
  ["ACAUGAGACUGAGGAUAUGUUGUACCUACAUGUGACAUGAGGAUCACCCAUGUGGUAAGUAUGAUACAGAAGGCAGAGAUAUGU [Equivalance 63 - Jieux - Same State NG 2] (Eterna round: R96, puzzle: Same State NG 2)", "no (0)"],
  ["GGUCGGUCCAACAUGAGGAUCACCCAUGUACCGGAAACGGCAUAGGAUAUCUGUCCGAAAAGGUCAGAGAAGGGUGAACCGACC [Fiskers NG3ss - 72] (Eterna round: R96, puzzle: Same State NG 3)", "yes (1)"],
  ["UGGUACAUGGGAGGAUAUGGGCAAGGGACAUGAGGAUCACCCAUGUAUUAAAUGCCGAGAGGCAUCUAGAAGGCCCAUGUACCU [JL SSNG1 3.88] (Eterna round: R96, puzzle: Same State NG 2)", "no (0)"],
  ["GCUCGCACGAUGACCCACAUGAGGAUCACCCAUGUGCGUGGGCAGGAUAUCUAGAUUAAGGAUGUAGAGAAGGGUUGAGCGAGC [SameState NG3 #25] (Eterna round: R96, puzzle: Same State NG 3)", "yes (1)"],
  ["UUGCGGGAUUAAGGAUAUUGAGUACAUAUGUUUAACAUGAGGAUCACCCAUGUGGGUUGCGGUAUCGAGAAGGUAACUUACUAC [salish99_SSNG2_r04_804] (Eterna round: R96, puzzle: Same State NG 2)", "yes (1)"],
  ["AGAGGAGGAGCAGGAUAUUCGAAGAAGAACGUGGAAGAAGGGUUCAUGCGAUGACAUGAGGAUCACCCAUGUACCGCGCGAGGA [AK SSNG1-V2-11] (Eterna round: R96, puzzle: Same State NG 1)", "yes (1)"],
  ["GUAGCAUACCGAGGAUAUUCAUAUAAUAAAUACAUGAGGAUCACCCAUGUAAGGCGAAAGCCUUGGGAGAAGGCGGAAUGCUAC [Xeonanis - 20 Mod59] (Eterna round: R96, puzzle: Same State NG 2)", "no (0)"],
  ["GGAAUAUGAUGUUACAUGAGGAUCACCCAUGUAGUGAUAACUAAGGAUAUUUGAAAGGGAGGAGAAGAGAAGGUAGGAUCAUAA [AK SSNG3-V2-11.1] (Eterna round: R96, puzzle: Same State NG 3)", "yes (1)"],
  ["ACACUCCGUGGAGGAUAUGGGCCUGCCCGGGAUACCGGGCCUAACACAUGAGGAUCACCCAUGUCCCAGAAGGCCGCUGGAGCC [Enenala] (Eterna round: R96, puzzle: Same State NG 2)", "yes (1)"],
  ["GGAGCCGGCCUAGGAUAUUUCAUUAAAAAACAUGAGGAUCACCCAUGUAGGCCAGAAGGCCUUGGGAAGAAGGAGGUCGGCUCC [Loop Effect - U24] (Eterna round: R96, puzzle: Same State NG 2)", "no (0)"],
  ["UGAAUAGUGAUAGGAUAUACAUGAGGAAUCCUCGUAGAAGGAUCAUAACAUGAGGAUCACCCAUGUAGCCGUCGAAAGACGGCA [Mat - Same State NG 1 - JL mod - D58] (Eterna round: R96, puzzle: Same State NG 1)", "yes (1)"]
]}
